Cited source: patent US20210395256A1

- ASSAY_TARGET: UniProtKB P04629
- Sequence (P04629 33-796): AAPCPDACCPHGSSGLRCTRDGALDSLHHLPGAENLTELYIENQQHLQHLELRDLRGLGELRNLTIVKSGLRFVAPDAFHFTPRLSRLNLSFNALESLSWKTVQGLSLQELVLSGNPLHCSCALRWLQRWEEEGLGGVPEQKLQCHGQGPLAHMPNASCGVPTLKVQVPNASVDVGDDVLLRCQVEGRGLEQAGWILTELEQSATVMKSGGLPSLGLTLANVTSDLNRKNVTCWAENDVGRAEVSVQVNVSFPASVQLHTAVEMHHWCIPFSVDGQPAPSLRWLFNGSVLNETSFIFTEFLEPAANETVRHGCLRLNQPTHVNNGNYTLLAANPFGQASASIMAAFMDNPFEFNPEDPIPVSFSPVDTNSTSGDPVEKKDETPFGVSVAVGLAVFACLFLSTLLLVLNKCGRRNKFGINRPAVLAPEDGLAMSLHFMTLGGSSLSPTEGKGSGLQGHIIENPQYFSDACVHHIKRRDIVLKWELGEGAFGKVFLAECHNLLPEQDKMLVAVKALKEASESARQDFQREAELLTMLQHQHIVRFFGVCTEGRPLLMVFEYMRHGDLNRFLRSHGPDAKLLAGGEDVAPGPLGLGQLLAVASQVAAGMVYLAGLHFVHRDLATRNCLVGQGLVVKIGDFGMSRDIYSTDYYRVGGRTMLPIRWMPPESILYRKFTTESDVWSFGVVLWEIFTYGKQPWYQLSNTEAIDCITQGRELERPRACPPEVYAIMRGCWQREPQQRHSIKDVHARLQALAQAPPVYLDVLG
- ASSAY_METHOD_TEXT: TrkA kinase assay (mobility shift assay)
- Type: biochemical
- PROTOCOL_CONDITIONS: class symbols; read-out: Trk A Kinase IC50
pIC50: −log10 of the molar value.
Reported values of pIC50 for individual entries

Here are 3 compounds together with their reported answers.
1) Fc1ccc(F)c([C@H]2CCCN2c2ccn3ncc(-c4nnc(-c5ccc6cn[nH]c6c5)[nH]4)c3n2)c1 ... ≥ 8.00
2) O=C(O)c1ccc2[nH]c(-c3cnn4ccc(N5CCC[C@@H]5c5cc(F)ccc5F)nc34)cc2c1 ... ≥ 8.00
3) Fc1ccc(F)c([C@H]2CCCN2c2ccn3ncc(-c4nc5nc6ccccc6nc5[nH]4)c3n2)c1 ... 7.30 to 8.00

Form field - read-out: pIC50; system: UniProtKB P04629; submitted item: CNc1cc2[nH]c(-c3cnn4ccc(N5CCC[C@@H]5c5cc(F)ccc5F)nc34)nc2cc1C#N ≥ 8.00

----------
- ASSAY_TARGET: CYP2C19 (Homo sapiens)
- Construct: from tissue; host or cells: human liver microsomes
- Sequence (P33261 whole entry): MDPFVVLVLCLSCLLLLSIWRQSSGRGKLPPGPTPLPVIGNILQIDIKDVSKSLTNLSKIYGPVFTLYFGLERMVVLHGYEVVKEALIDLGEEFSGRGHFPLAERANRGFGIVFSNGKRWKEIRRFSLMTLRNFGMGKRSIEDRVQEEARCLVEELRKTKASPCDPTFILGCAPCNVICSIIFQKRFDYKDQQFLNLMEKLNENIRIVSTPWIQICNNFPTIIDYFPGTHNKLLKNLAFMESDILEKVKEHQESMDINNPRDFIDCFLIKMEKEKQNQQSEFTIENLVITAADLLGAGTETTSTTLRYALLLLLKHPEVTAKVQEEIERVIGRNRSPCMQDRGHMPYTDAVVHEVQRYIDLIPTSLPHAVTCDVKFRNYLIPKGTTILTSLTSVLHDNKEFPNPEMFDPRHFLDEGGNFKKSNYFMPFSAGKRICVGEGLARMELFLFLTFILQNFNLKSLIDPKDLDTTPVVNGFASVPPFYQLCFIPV
- ASSAY_METHOD_TEXT: Cytochrome P450 inhibition, CYP2C19
- Assay type: in vitro ADME
- PROTOCOL_CONDITIONS: probe (s)-Mephenytoin (50 μM); 10 μM compound, human liver microsomes, substrate (s)-Mephenytoin; read-out: Inhibition percentage CYP2C19 ((s)-Mephenytoin)
ASSAY_ENDPOINT: inhibition at 20 min, 10 µM (%)

Known inhibition at 20 min, 10 µM results, listed for orientation:
1) CC(C)(O)c1nnc(-c2cnn3ccc(N4CCC[C@@H]4c4cc(F)ccc4F)nc23)[nH]1 [Compound 7] ... 6.79
2) C[C@H](O)c1nnc(-c2cnn3ccc(N4CCC[C@@H]4c4cc(F)ccc4F)nc23)[nH]1 [Compound 4] ... 7.23

I: Cc1nnc(-c2cnn3ccc(N4CCCC4c4cc(F)ccc4F)nc23)[nH]1 (stereo not shown) [Comparative compound A, reference compound]
II: OC(c1nnc(-c2cnn3ccc(N4CCC[C@@H]4c4cc(F)ccc4F)nc23)[nH]1)C(F)(F)F (stereo partly shown) [Compound 47]
// compare measured inhibition at 20 min, 10 µM between I and II ; output the lower one Indicate which entry you chose by stating its label. I

----------
- ASSAY_METHOD_TEXT: Liver microsomes metabolic stability assay, mouse
- Format: in vitro ADME
- PROTOCOL_CONDITIONS: male, mouse liver microsomes 0.5 mg/mL, 37° C.
ASSAY_ENDPOINT: microsomal CLint at 2 μM (µL/min/mg)

Worked cases, microsomal CLint at 2 μM given:
1) OC1(c2nnc(-c3cnn4ccc(N5CCC[C@@H]5c5cc(F)ccc5F)nc34)[nH]2)CCC1 [Compound 23] ... 48.6
2) OC1CC(c2nnc(-c3cnn4ccc(N5CCC[C@@H]5c5cc(F)ccc5F)nc34)[nH]2)C1 (stereo partly shown) [Compound 31] ... 37

A: Fc1ccc(F)c([C@H]2CCCN2c2ccn3ncc(-c4nc5cnncc5[nH]4)c3n2)c1 [Compound 76]
B: Fc1ccc(F)c([C@H]2CCCN2c2ccn3ncc(-c4nc5cc6c(cc5[nH]4)OCCO6)c3n2)c1 [Compound 96]
C: O=C(O)c1nnc(-c2cnn3ccc(N4CCC[C@@H]4c4cc(F)ccc4F)nc23)[nH]1 [Compound 17]
D: Cc1nnc(-c2cnn3ccc(N4CCCC4c4cc(F)ccc4F)nc23)[nH]1 (stereo not shown) [Comparative compound A, reference compound]
E: C[C@H](O)c1nnc(-c2cnn3ccc(N4CCC[C@@H]4c4cc(F)ccc4F)nc23)[nH]1 [Compound 4]
Highest microsomal CLint at 2 μM first, then in falling order down to the smallest. Ranked list of labels, please, in the requested order. D, E, B, A, C
